B1: Peroxisome proliferator-activated receptor delta, residues 71 to 145; numbered along this chain, Q03181 (parent)
chain: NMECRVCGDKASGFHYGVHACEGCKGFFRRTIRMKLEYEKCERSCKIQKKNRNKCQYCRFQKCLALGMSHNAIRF

Variants of: B1
Test: abundance fitness (aPCA) (normalised: wild type 0, dead -1); higher = more abundant; growth selection in yeast, the domain comes from the species named
Details: Homo sapiens
So I've got a bunch of variants here, and I need their abundance fitness values.
Give bare numbers.

[
  {
    "mutation-spec": "E42A",
    "abundance fitness": -0.179
  },
  {
    "mutation-spec": "E39D",
    "abundance fitness": -0.063
  },
  {
    "mutation-spec": "H70V",
    "abundance fitness": 0.099
  },
  {
    "mutation-spec": "E42K",
    "abundance fitness": -0.209
  },
  {
    "mutation-spec": "A11G",
    "abundance fitness": -0.232
  }
]

Can you give me abundance fitness for all of these, one by one?
1. K46L
2. F14V
3. F75P
4. I32S

[0.022, 0.018, 0.152, -0.464]

Can you give me abundance fitness for all of these, one by one?
1. G17E
2. F28D
3. G23Y
4. Q56S
5. Q56G
6. F75M
7. S44P

1: -0.27; 2: -0.845; 3: 0.021; 4: 0.008; 5: 0.002; 6: -0.192; 7: -0.134

Can you give me abundance fitness for all of these, one by one?
1. Q61Y
2. R33L
3. A11C

1. -0.227
2. 0.089
3. -0.367

Entry Q61V needs its abundance fitness filled in; supply it.
-0.243
